- Test system: XF498
- procedureDetails: NCI tumour cell line growth inhibition, 48 h
Activity calls are given as the source filed them. Rule as the data show it: active = GI50 up to about 1.1 µM and inactive = higher. Square brackets hold non-standard residues; d marks the D form. Peptide text beside a SMILES is read from it.
measurementLabel: GI50

Sample answers from the record:
- compound: "C#CCNC(=O)NCCCCC(NC(C)=O)C(=O)NCc1ccccc1 (configuration not stated)"
  GI50: "0.101 µM (active)"
- compound: "Cn1c2cccc3nnc4cccc(c4c32)n1C"
  GI50: "> 100 µM (inactive)"
- compound: "O=C(O)c1cc2c(ncc3c(=O)n(-c4ccccc4)[nH]c32)s1"
  GI50: "> 100 µM (inactive)"
- compound: "CC(=O)Oc1cc(OC(C)=O)c2cc3c(cc2c1OC(C)=O)C(=O)C1(CCCC1)C3=O"
  GI50: "16.4 µM (inactive)"
- compound: "CCOC(=O)c1cnc2c(ccc3ncccc32)c1NCCCN(CC)CC"
  GI50: "> 100 µM (inactive)"

Answer for every listed entry: what is its GI50? The entries follow.
1. Cc1ccc(C)c(N2C/C(=N\NC(=O)CC#N)C(c3nc4ccccc4s3)C(=O)C2=O)c1 (configuration not stated)
2. CCN(CC)CC(=O)N1CCc2c([nH]c3ccccc23)C1c1cccnc1 (configuration not stated)
3. O=C(c1ccccc1)c1nc2ccc(Cl)cc2cc1C(Br)Br

1. > 100 µM (inactive)
2. > 100 µM (inactive)
3. 0.933 µM (active)

Answer for every listed entry: what is its GI50? The entries follow.
1. C[C@@H](CC(O)C1OC1(C)C)[C@@H]1CC[C@]2(C)C3=CCC4C(C)(C)C(O)CC[C@]4(C)C3CCC12C (some centres not stated)
2. C/C(=N\NC(=O)c1ccccc1O)c1cccc(/C(C)=N/NC(=O)c2ccccc2O)n1.[Cl-].[Cl-].[Zn+2]
3. O=C(CC1(O)C(=O)Nc2c(Cl)cccc21)c1ccccc1 (configuration not stated)
4. N#CCc1cccc(CC#N)c1Br

1. 20.8 µM (inactive)
2. 21.2 µM (inactive)
3. > 100 µM (inactive)
4. > 100 µM (inactive)

Answer for every listed entry: what is its GI50? The entries follow.
1. CCOc1ccccc1NC(=O)CC1Sc2ccccc2NC1=O (configuration not stated)
2. N#CNCC(COCc1ccccc1)c1ccccc1 (configuration not stated)
3. CC/C(C)=C1\CCC(CN2CCOCC2)C1=O (configuration not stated)

80.4 µM (inactive)
47.6 µM (inactive)
19.1 µM (inactive)

Answer for every listed entry: what is its GI50? The entries follow.
1. O=C(N/N=C(\C1=Nc2ccc(Cl)cc2NC1O)C(O)/C=C/c1ccccc1)c1ccncc1 (configuration not stated)
2. CC(C)C[C@H](NC(=O)[C@H](CC(C)C)NC(=O)[C@@H](Cc1c[nH]c2ccccc12)NC(=O)[C@H](Cc1ccccc1)NC(=O)[C@@H](Cc1c[nH]c2ccccc12)NC(=O)[C@H](CCC(N)=O)NC(=O)[C@@H](CCC(N)=O)NC(=O)[C@@H]1CCCN1C(=O)[C@@H](CCCCN)NC(=O)[C@H]1CCCN1C(=O)[C@H](N)CCCN=C(N)N)C(N)=O (H-[dR][dP][dK]P[dQ]Q[dW]F[dW]LL-NH2)

["> 100 µM (inactive)", "> 100 µM (inactive)"]

The values you see were collected from ChEMBL document CHEMBL1201862.
